pIC50: −log10 of the molar value.
Multiple publications report pIC50 for Aldo-keto reductase family 1 member B1 (Rattus norvegicus, UniProt P07943); what follows is a combined list.
Mark False for pIC50 values under 5, and True for everything at or above.

molecule=O=C(Cn1c(=O)c(/C=C/c2ccc(F)cc2)nc2ccccc21)NS(=O)(=O)C(F)(F)F assay_target="Aldo-keto reductase family 1 member B1 (Rattus norvegicus, UniProt P07943)" label=False
molecule=O=C(Cn1c(=O)c(-c2ccc(F)cc2)nc2ccccc21)NS(=O)(=O)C(F)(F)F assay_target="Aldo-keto reductase family 1 member B1 (Rattus norvegicus, UniProt P07943)" label=False
molecule=O=C(Cn1c(=O)c(-c2ccc(O)c(O)c2)nc2ccccc21)NS(=O)(=O)C(F)(F)F assay_target="Aldo-keto reductase family 1 member B1 (Rattus norvegicus, UniProt P07943)" label=True
molecule=Cc1ccc(N(CC(=O)O)S(=O)(=O)c2ccccc2)cc1 assay_target="Aldo-keto reductase family 1 member B1 (Rattus norvegicus, UniProt P07943)" label=False
molecule=c1ccc2c(c1)-c1ccccc1C2c1nnn[nH]1 assay_target="Aldo-keto reductase family 1 member B1 (Rattus norvegicus, UniProt P07943)" label=False
molecule="O=C(O)CC1CN(Cc2ccc(C(F)(F)F)cc2)S(=O)(=O)c2ccccc21 (racemic)" assay_target="Aldo-keto reductase family 1 member B1 (Rattus norvegicus, UniProt P07943)" label=True
molecule=CC1=CC[C@H](O)[C@]2(C)[C@H]1[C@@H](O[C@@H]1O[C@H](CO)[C@@H](O)[C@H](O)[C@H]1O)[C@H](C(C)(C)O)C[C@H]2OC(=O)/C=C/c1ccc(O)cc1 assay_target="Aldo-keto reductase family 1 member B1 (Rattus norvegicus, UniProt P07943)" label=False
molecule=Nc1cccc(S(=O)(=O)N(CC(=O)O)c2ccccc2)c1 assay_target="Aldo-keto reductase family 1 member B1 (Rattus norvegicus, UniProt P07943)" label=False
molecule=O=C(NO)c1cn(Cc2ccc(Cl)cc2)c2ccccc2c1=O assay_target="Aldo-keto reductase family 1 member B1 (Rattus norvegicus, UniProt P07943)" label=True
molecule=O=C(O)Cn1c(=O)c(-c2ccc(F)cc2)nc2ccccc21 assay_target="Aldo-keto reductase family 1 member B1 (Rattus norvegicus, UniProt P07943)" label=True
molecule=O=C(c1ccccc1)c1ccn(-c2cc(F)c(O)c(F)c2)c1 assay_target="Aldo-keto reductase family 1 member B1 (Rattus norvegicus, UniProt P07943)" label=True
molecule=C[C@@H]1[C@@]23CC[C@H]4[C@@](C)(CC[C@@]5(C)[C@@H]6C[C@](C)(C(=O)O)CC[C@]6(C)CC[C@]45C)[C@@H]2CC[C@@]1(O)OC3 assay_target="Aldo-keto reductase family 1 member B1 (Rattus norvegicus, UniProt P07943)" label=False
molecule=O=C(O)Cn1c(=O)c(Sc2ccc(Br)cc2)nc2ccccc21 assay_target="Aldo-keto reductase family 1 member B1 (Rattus norvegicus, UniProt P07943)" label=True
molecule=COc1ccc2nc(-c3ccccc3)c(=O)n(CC(=O)O)c2c1 assay_target="Aldo-keto reductase family 1 member B1 (Rattus norvegicus, UniProt P07943)" label=True
molecule="O=CC(O)C(O)(Oc1ccc(/C=C/C(=O)O[C@H](Cc2ccc(O)c(O)c2)C(=O)O)cc1O)C(O)C(O)CO (some centres undefined)" assay_target="Aldo-keto reductase family 1 member B1 (Rattus norvegicus, UniProt P07943)" label=True
molecule=COc1cc(/C=C/c2nc3ccccc3n(CC(=O)NS(=O)(=O)C(F)(F)F)c2=O)ccc1O assay_target="Aldo-keto reductase family 1 member B1 (Rattus norvegicus, UniProt P07943)" label=True
molecule=C[C@@]12C[C@@]3(O)O[C@@H](O1)[C@]1(COC(=O)c4ccccc4)[C@@H]3C[C@]12O[C@@H]1O[C@H](COC(=O)c2cc(O)c(O)c(O)c2)[C@@H](O)[C@H](O)[C@H]1O assay_target="Aldo-keto reductase family 1 member B1 (Rattus norvegicus, UniProt P07943)" label=False
molecule=O=C(/C=C/c1ccc(Br)cc1)c1ccc(O)cc1O assay_target="Aldo-keto reductase family 1 member B1 (Rattus norvegicus, UniProt P07943)" label=True
molecule=CC(=O)Nc1ccc(S(=O)(=O)NCC(=O)O)cc1 assay_target="Aldo-keto reductase family 1 member B1 (Rattus norvegicus, UniProt P07943)" label=True
molecule=O=C1NS(=O)(=O)CC12c1cc(F)ccc1-c1ccc(F)cc12 assay_target="Aldo-keto reductase family 1 member B1 (Rattus norvegicus, UniProt P07943)" label=False
molecule=CC(C)c1ccc2occ(/C=C3/SC(=O)NC3=O)c(=O)c2c1 assay_target="Aldo-keto reductase family 1 member B1 (Rattus norvegicus, UniProt P07943)" label=True
molecule=O=C(/C=C/c1ccc(O)c(O)c1)O[C@H](Cc1ccc(O)c(O)c1)C(=O)O assay_target="Aldo-keto reductase family 1 member B1 (Rattus norvegicus, UniProt P07943)" label=True
molecule="N#CC(C(=O)O)C1C(=O)N(Cc2ccccc2)c2ccccc21 (centres undefined)" assay_target="Aldo-keto reductase family 1 member B1 (Rattus norvegicus, UniProt P07943)" label=True
molecule="N#CC(C(=O)O)C1C(=O)N(Cc2ccc(C(F)(F)F)cc2)c2ccc(F)cc21 (centres undefined)" assay_target="Aldo-keto reductase family 1 member B1 (Rattus norvegicus, UniProt P07943)" label=True
molecule=COc1ccc(/C=C/C(=O)c2ccc(O)cc2O)cc1OC assay_target="Aldo-keto reductase family 1 member B1 (Rattus norvegicus, UniProt P07943)" label=True
molecule=COc1ccc(-c2cc(=O)n3ccccc3n2)cc1OC assay_target="Aldo-keto reductase family 1 member B1 (Rattus norvegicus, UniProt P07943)" label=False
molecule=CS(=O)(=O)NC(=O)c1cn(Cc2cc(O)cc(O)c2)c2ccccc2c1=O assay_target="Aldo-keto reductase family 1 member B1 (Rattus norvegicus, UniProt P07943)" label=True
molecule=O=C(O)CN1CC(=O)Oc2c(/C=C/c3ccc(O)cc3)cccc21 assay_target="Aldo-keto reductase family 1 member B1 (Rattus norvegicus, UniProt P07943)" label=True
molecule=COc1cc(OC)cc(-c2ccc(O)c(O[C@@H]3O[C@H](CO)[C@@H](O)[C@H](O)[C@H]3O)c2)c1 assay_target="Aldo-keto reductase family 1 member B1 (Rattus norvegicus, UniProt P07943)" label=True
molecule=Cc1cc(=O)n(CC(=O)O)c2ccc([N+](=O)[O-])cc12 assay_target="Aldo-keto reductase family 1 member B1 (Rattus norvegicus, UniProt P07943)" label=True
molecule="COc1cc2c(c(O)c1C)COC(C)C2 (centres undefined)" assay_target="Aldo-keto reductase family 1 member B1 (Rattus norvegicus, UniProt P07943)" label=False
molecule=COc1c(O)c(O)c(O)c2c(=O)cc(-c3ccc(O)cc3)oc12 assay_target="Aldo-keto reductase family 1 member B1 (Rattus norvegicus, UniProt P07943)" label=True
molecule=COc1ccc(C(=O)c2ccn(CC(=O)O)c2)cc1 assay_target="Aldo-keto reductase family 1 member B1 (Rattus norvegicus, UniProt P07943)" label=True
molecule=CC(C)(C)c1ccc(-c2cccc3c2oc(=O)n3CC(=O)O)cc1 assay_target="Aldo-keto reductase family 1 member B1 (Rattus norvegicus, UniProt P07943)" label=True
